system name: 5-HT3A receptor (Homo sapiens)
Construct: gene HTR3A; homomeric (pentameric) receptor expressed recombinantly in HEK293 cells; cell membranes
experimental details: [3H]granisetron competition binding, HEK293 membranes
condition notes: read-out: pKi (A) (converted)
Field: log10 Ki. Provide a value for each of the compounds that follow.
Heads up: the numbers are on a log10 scale; they represent Ki in nM.

[ask] GET log10 Ki | system: 5-HT3A receptor (Homo sapiens) | item: `CN1CCN(c2nc3cc(Cl)c(Cl)cc3nc2Cl)CC1`
[reply] 0.91

[ask] State, for 5-HT3A receptor (Homo sapiens), measured log10 Ki of the compound listed here: `CN1CCCN(c2cnc3ccccc3n2)CC1`
[reply] 0.91

[ask] With 5-HT3A receptor (Homo sapiens) as the test system, provide measured log10 Ki for this compound: CNC1CCN(c2cnc3ccccc3n2)C1 (stereo not drawn)
[reply] 1.51

[ask] Give the observed log10 Ki of CNC1CCN(c2nc3ccccc3nc2Cl)C1 (stereo not drawn) for 5-HT3A receptor (Homo sapiens).
[reply] 2.31

[ask] # return log10 Ki of `CCOc1nc2ccccc2nc1N1CCN(C)CC1` (system: 5-HT3A receptor (Homo sapiens))
[reply] 0.00

[ask] Give measured log10 Ki for `CN1CCN(c2nc3ccccc3nc2OCc2ccccc2)CC1` (5-HT3A receptor (Homo sapiens)).
[reply] 2.11

====

system name: 5-HT3A receptor (Homo sapiens)
Construct: gene HTR3A; homomeric (pentameric) receptor expressed recombinantly in HEK293 cells; cell membranes
Sequence (P46098 24-478): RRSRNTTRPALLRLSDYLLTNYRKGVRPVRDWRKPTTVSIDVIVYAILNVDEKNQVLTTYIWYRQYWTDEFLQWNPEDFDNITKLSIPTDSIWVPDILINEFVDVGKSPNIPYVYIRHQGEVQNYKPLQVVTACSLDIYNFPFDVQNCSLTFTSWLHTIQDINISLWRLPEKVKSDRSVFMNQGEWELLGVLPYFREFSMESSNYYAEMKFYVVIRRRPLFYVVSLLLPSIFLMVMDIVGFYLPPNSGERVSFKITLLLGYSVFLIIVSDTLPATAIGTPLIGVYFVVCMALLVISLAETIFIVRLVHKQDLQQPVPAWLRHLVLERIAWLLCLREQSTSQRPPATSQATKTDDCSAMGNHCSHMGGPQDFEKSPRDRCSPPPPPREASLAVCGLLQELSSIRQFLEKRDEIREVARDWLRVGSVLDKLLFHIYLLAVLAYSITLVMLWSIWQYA
experimental details: [3H]granisetron competition binding, HEK293 membranes
condition notes: read-out: pKi (A) (converted)
Description: [3H]granisetron competition binding, HEK293 membranes on 5-HT3A receptor
measurement type: Ki (nM)
The figure you give is taken to be in nM; do not add the unit.

[ask] State its Ki for this compound: `CN1CCN(c2nc3ccc(Cl)cc3[nH]c2=O)CC1`
[reply] 31.6

[ask] Note Ki for the compound shown: `Cc1nc2ccccc2nc1N1CCN(C)CC1`
[reply] 2.57

[ask] Please report Ki for the following compound: `CN1CCN(c2nc3cc(Cl)c(Cl)cc3[nH]c2=O)CC1`
[reply] 50.1

[ask] Quick one: give measured Ki for `CN1CCN(c2nc3ccc(Cl)cc3nc2Cl)CC1`
[reply] 1.12

[ask] Note Ki for the compound shown: `CN1CCN(c2nc3ccccc3nc2OC2CCCCC2)CC1`
[reply] 537

[ask] Output measured Ki for this item: `CN1CCN(c2cnc3cc(Cl)c(Cl)cc3n2)CC1`
[reply] 3.89

[ask] Report Ki, nothing else, for this compound: `CN1CCN(c2nc3ccccc3nc2Br)CC1`
[reply] 0.49

[ask] Provide measured Ki value, entry: `CN1CCN(c2nc3ccccc3nc2Oc2ccccc2)CC1`
[reply] 87.1

[ask] Let me know recorded Ki for `CCc1nc2ccccc2nc1N1CCN(C)CC1` , thanks.
[reply] 0.631

[ask] Item `CN1CCN(c2nc3ccccc3[nH]c2=O)CC1` : provide Ki
[reply] 1.17

[ask] Please look at this compound and report its Ki: `CN1CCN(c2nc3ccccc3nc2N)CC1`
[reply] 2.95
